Molecular target: Calcitonin-gene-related peptide receptor, CALCRL/RAMP1 (Homo sapiens, UniProt O60894+Q16602)
Sequence (O60894 whole entry): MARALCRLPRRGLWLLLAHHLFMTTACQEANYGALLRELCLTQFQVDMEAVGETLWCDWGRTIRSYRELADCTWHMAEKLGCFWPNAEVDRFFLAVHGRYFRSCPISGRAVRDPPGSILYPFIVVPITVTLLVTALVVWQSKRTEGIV
Sequence (Q16602 whole entry): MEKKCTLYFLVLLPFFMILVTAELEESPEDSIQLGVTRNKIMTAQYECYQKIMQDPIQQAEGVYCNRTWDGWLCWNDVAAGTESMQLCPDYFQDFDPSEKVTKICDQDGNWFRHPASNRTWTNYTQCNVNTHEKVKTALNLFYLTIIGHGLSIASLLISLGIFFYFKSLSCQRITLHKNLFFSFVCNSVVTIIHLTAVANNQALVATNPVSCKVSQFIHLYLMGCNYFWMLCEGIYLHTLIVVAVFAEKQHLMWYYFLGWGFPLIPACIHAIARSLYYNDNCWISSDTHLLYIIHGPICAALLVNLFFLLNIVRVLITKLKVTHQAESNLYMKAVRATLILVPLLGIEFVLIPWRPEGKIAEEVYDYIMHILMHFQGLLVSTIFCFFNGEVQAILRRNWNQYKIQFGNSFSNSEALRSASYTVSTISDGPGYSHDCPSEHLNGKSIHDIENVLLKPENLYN
Test: Displacement of [125I]-hCGRP from human CALCRL/RAMP1 expressed in HEK293 cell membranes
Examples of compounds with documented pKi follow.
Note: pKi values are expressed as the negative base-10 logarithm of concentration in M.

Past entries and their recorded results:
[
  {
    "smiles.repr": "CC(C)C(=O)N(C/C=C/c1ccc2c(c1)C[C@@]1(C2)C(=O)Nc2ncccc21)[C@H](C)c1cc(F)cc(F)c1",
    "measured.number": 8.90
  },
  {
    "smiles.repr": "Cc1noc(C)c1C(=O)N(C/C=C/c1cnc2c(c1)C[C@@]1(C2)C(=O)Nc2ncccc21)[C@H](C)c1cc(F)cc(F)c1",
    "measured.number": 8.62
  }
]

Data request: I would be grateful if you could share the reported pKi for C[C@H](c1ccc(Cl)cc1)N(C/C=C/c1cnc2c(c1)C[C@@]1(C2)C(=O)Nc2ncccc21)C(=O)C(C)(C)C .
Data returned: 9.51

Data request: Requested field: pKi. Item: CC(C)(C)C(=O)N(C/C=C/c1cnc2c(c1)C[C@@]1(C2)C(=O)Nc2ncccc21)Cc1cc(F)cc(F)c1
Data returned: 9.03
